B1: MNAT1 (parent)
chain: SLREYNDFLEEVEEIVFNLTNNVD

Variants of: B1
procedureDetails: protein stability index of a GFP-peptide fusion (GPS, HEK-293T) (PSI 1-6); higher = more stable;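 further: lentivirally expressed fusions sorted by FACS into six bins by GFP to DsRed ratio, PSI derived from sequencing read proportions per bin multiplied by bin number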
measurementParameters: c terminus: a fixed tail appended
Entries and their protein stability index
Respond numerically, and do not add a unit to the figure.

Take a look at these entries with their results.
Y5V	2.05
D7W	1.96
E4N	2.04

Exam item: Can you share its protein stability index? I mean this variant: `L19Y`
Marked response: 3.06

Exam item: Which protein stability index value is on record for `I15D` ?
Marked response: 4.82

Exam item: Need protein stability index, item `E11S`
Marked response: 1.73

Exam item: Which protein stability index value is on record for `E10S` ?
Marked response: 2.41

Exam item: GET /values?readout=protein stability index&item= `V23Q`
Marked response: 2.21

Reference for the values: the supplement of paper PMC10567573
